Where do these numbers come from? They come from patent US7964607B2.

Target: human recombinant PDE9 enzyme (Homo sapiens, UniProt O76083)
Construct: made in house; host or cells: SF-9 insect cells
Sequence (O76083 whole entry): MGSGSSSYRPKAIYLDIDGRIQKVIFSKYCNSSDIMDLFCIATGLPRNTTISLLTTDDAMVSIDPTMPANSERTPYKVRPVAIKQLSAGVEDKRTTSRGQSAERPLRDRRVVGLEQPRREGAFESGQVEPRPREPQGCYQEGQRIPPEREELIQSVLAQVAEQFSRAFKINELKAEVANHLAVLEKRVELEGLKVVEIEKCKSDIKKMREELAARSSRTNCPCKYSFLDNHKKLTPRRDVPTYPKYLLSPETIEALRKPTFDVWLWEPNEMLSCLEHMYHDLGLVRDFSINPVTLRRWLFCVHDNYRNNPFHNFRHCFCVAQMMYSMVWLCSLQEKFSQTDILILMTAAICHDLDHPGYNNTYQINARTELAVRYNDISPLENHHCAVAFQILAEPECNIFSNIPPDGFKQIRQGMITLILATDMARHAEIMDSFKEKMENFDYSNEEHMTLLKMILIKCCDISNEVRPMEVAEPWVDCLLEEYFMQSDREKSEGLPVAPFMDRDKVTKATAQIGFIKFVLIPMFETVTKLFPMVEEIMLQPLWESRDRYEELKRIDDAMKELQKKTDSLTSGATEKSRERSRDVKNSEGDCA
Experiment: Phosphodiesterase 9 (PDE9) inhibitory activity, Scintillation Proximity (SPA) assay
Format: biochemical
Procedure: Phosphodiesterase 9 (PDE9) Inhibitory Activity The PDE9 assay was performed using the Phosphodiesterase Scintillation Proximity (SPA) assay (GE Healthcare Life Sciences). […] Each assay well contained 10 μl of test compound or solvent, 40 μl of [^3H]CGMP and 50 μl of enzyme, background was determined by a high concentration of a PDE inhibitor. […] The plates were sealed, vortexed, allowed to set for >300 min, then counted in a Wallac TriLux MicroBeta LSC.
pIC50: −log10 of the molar value.
Reported values of pIC50 for individual entries
Observed property: pIC50

> print(dat)
                                   compound                             system.tested  result.number
1  Cc1ccc(CN2C[C@@H](C)[C@H](c3nc4c(cnn4C4CCOCC4)c(=O)[nH]3)C2)cn1 [Example 79]  human recombinant PDE9 enzyme (Homo sapiens, UniProt O76083)           8.43
2  COc1ccc(CN2C[C@@H](C)[C@H](c3nc4c(cnn4C4CCOCC4)c(=O)[nH]3)C2)cc1 [Example 101]  human recombinant PDE9 enzyme (Homo sapiens, UniProt O76083)           8.10
3  Cc1ncc(CN2C[C@@H](C)[C@H](c3nc4c(cnn4C4CCOCC4)c(=O)[nH]3)C2)cn1 [Example 73]  human recombinant PDE9 enzyme (Homo sapiens, UniProt O76083)           8.22

---

Target: human recombinant PDE9 enzyme (Homo sapiens)
Construct: made in house; host or cells: SF-9 insect cells
Experiment: Phosphodiesterase 9 (PDE9) inhibitory activity, Scintillation Proximity (SPA) assay
Type: biochemical
Conditions: human recombinant PDE9 from SF-9 cells; 50 nM [3H]cGMP; room temperature, 30 min; Examples 3-114; read-out: G5678A (U): IC50
Experimental: Phosphodiesterase 9 (PDE9) Inhibitory Activity The PDE9 assay was performed using the Phosphodiesterase Scintillation Proximity (SPA) assay (GE Healthcare Life Sciences). […] Each assay well contained 10 μl of test compound or solvent, 40 μl of [^3H]CGMP and 50 μl of enzyme, background was determined by a high concentration of a PDE inhibitor. […] The plates were sealed, vortexed, allowed to set for >300 min, then counted in a Wallac TriLux MicroBeta LSC.
Observed property: IC50 (µM)

> print(dat)
                                    molecule  unit.tag  result.number
 1  C[C@@H]1CN(Cc2ccccn2)C[C@H]1c1nc2c(cnn2C2CCCC2)c(=O)[nH]1 (racemic)        µM         0.0114
 2  COc1ccc2nccc(CN3C[C@@H](C)[C@H](c4nc5c(cnn5C(C)C)c(=O)[nH]4)C3)c2c1 (racemic)        µM         0.0161
 3  C[C@@H]1CN(Cc2ccnc(N(C)C)n2)C[C@H]1c1nc2c(cnn2C2CCCC2)c(=O)[nH]1        µM         0.0147
 4  Cc1ncc(CN2C[C@@H](C)[C@H](c3nc4c(c(C)nn4C4CCOCC4)c(=O)[nH]3)C2)cn1        µM         0.0243
 5  CC[C@@H]1CN(Cc2ccccn2)C[C@H]1c1nc2c(cnn2C2CCOCC2)c(=O)[nH]1        µM        0.00421
 6  C[C@@H]1CN(Cc2ccccc2C(F)(F)F)C[C@H]1c1nc2c(cnn2C2CCOCC2)c(=O)[nH]1        µM         0.0128
 7  Cc1cc(CN2C[C@@H](C)[C@H](c3nc4c(cnn4C4CCCC4)c(=O)[nH]3)C2)n(C)n1        µM        0.00553
 8  Cc1nn(C2CCOCC2)c2nc([C@@H]3CN(Cc4ccccc4)C[C@H]3C)[nH]c(=O)c12        µM         0.0179
 9  COc1ccc2nccc(CN3C[C@@H](C)[C@H](c4nc5c(cnn5C(C)C)c(=O)[nH]4)C3)c2n1 (racemic)        µM         0.0307
10  CC[C@@H]1CN(Cc2ccc(OC)nc2)C[C@H]1c1nc2c(cnn2C(C)C)c(=O)[nH]1 (racemic)        µM         0.0387
